src = PubChem BioAssay (NCI)

tested on: MALME-3M melanoma; test: NCI tumour cell line growth inhibition, 48 h
# TGI per entry
outcome_measure: TGI

molecule: CSc1ccccc1C#Cc1ccccc1C#CCCCCO
observed: 36.5 µM
--
molecule: FC(F)(F)c1ccc(-c2cnc(Cl)nc2NCc2cc(C(F)(F)F)cc(C(F)(F)F)c2)cc1
observed: 7.56 µM
--
molecule: CCCCCC[C@H]1C(=O)O[C@H](C)[C@H](NC(=O)c2cccc(NC=O)c2OC)C(=O)O[C@@H](C)[C@@H]1OC(=O)CC(C)C (tested in a mixture with another compound)
observed: > 100 µM
--
molecule: COC(=O)C1=C(OC(=O)c2ccc(Cl)cc2)C(C(=O)OC)[C@@]2(O)[C@@H](C(=O)OC)C(c3ccccc3Cl)C[C@@H]1[C@@H]2C(=O)OC (some centres undefined)
observed: 31.7 µM
